# System: P388
# assay-notes: Antitumor activity against mouse P388 cells allografted in mouse assessed as increase in survival time at 1.56 mg/kg, ip qd administered starting from day 1 to day 9 post challenge relative to control
# Assay type: functional
# measurement-conditions: route intraperitoneal
property-label: T/C

For orientation, consider the following solved cases.
Data request: Which T/C is reported with P388 for this entry: `COc1cccc2c1C(=O)c1c(O)c3c(c(O)c1C2=O)C[C@@](O)(C(=O)CO)C[C@@H]3O[C@H]1C[C@H](N)[C@H](O)[C@H](C)O1` ?
Data returned: 176%

Data request: Identify the measured T/C of `COc1cccc2c1C(=O)c1c(O)c3c(c(O)c1C2=O)C[C@@](O)(C(C)=O)C[C@@H]3O[C@H]1C[C@H](N)[C@H](O)[C@H](C)O1` for P388.
Data returned: 148%

Data request: T/C of `CC[C@]1(O)Cc2c(O)c3c(c(O)c2[C@@H](O[C@H]2C[C@H](N)[C@H](O)[C@H](C)O2)C1)C(=O)c1c(OC)cccc1C3=O` on P388?
Data returned: 160%

# context switch: different molecule, same T/C
Data request: Form: Entry = `COc1cccc2c1C(=O)c1c(O)c3c(c(O)c1C2=O)C[C@@](O)(CCO)C[C@@H]3O[C@H]1C[C@H](N)[C@H](O)[C@H](C)O1` | System = P388 | T/C = ____
Data returned: 156%

The reported numbers originate from ChEMBL document CHEMBL3243937.
